target_or_test_system: Homeobox protein Hox-A13 (Mus musculus)
assay_method_text: inhibitors of HoxA13-DNA binding, primary screen, biochemical, fluorescence polarization, labeled oligonucleotide (AID 1185)
details: 15 min, higher = more signal, called active from +8 up or from −8 down
Active and inactive are the calls of the source.
reported_metric: z-score

z-score for `Cc1ccc(S[C@]2(C(=O)NC(C)C)CC(=O)N(Cc3cc(C(F)(F)F)cc(C(F)(F)F)c3)[C@@H]2c2ccc(CO)cc2I)cc1` ?
-2.81 (inactive)

Requested field: z-score. Item: COC(=O)C1=CC(c2ccc(CO)cc2)=CC(c2cccs2)N(Cc2cccc(OC(F)(F)F)c2)C=C1C(=O)OC (configuration not stated)
-8.1 (active)

Consider the compound `CC/C=C/C(=O)N(C[C@@H]1CCCO1)[C@@H]1CC(C(=O)NCCO)=C[C@H](Oc2c(I)cc(CO)cc2OC)[C@H]1O` and give its measured z-score.
-5.37 (inactive)

Requested field: z-score. Item: `C=C(CCCC)C(=O)CC[C@@H](OC(C)=O)c1ccccc1OCCO`
-4.53 (inactive)

State the recorded z-score for this entry: O=C1C2C=CC(C(O)c3ccccc3)N(n3cnnc3)C2C(=O)N1Cc1ccccc1 (configuration not stated)
-2.02 (inactive)

Which z-score value is on record for `COc1ccc(-c2cc3c(c(-c4ccccc4)n2)[Si](C(C)C)(C(C)C)O[C@H]3c2ccccc2)cn1` ?
-2.23 (inactive)

For the compound O=C1NC(=O)C2C1C=CC(C(O)C=Cc1ccc([N+](=O)[O-])cc1)N2Nc1ccccn1 (configuration not stated) , what z-score is on record?
-1.88 (inactive)

Please look up its z-score: `COc1cc(CO)cc(I)c1O[C@H]1C=C(C(=O)NCCO)C[C@@H](NCCc2c[nH]c3ccccc23)[C@@H]1O`
-7.08 (inactive)

For `C[C@H]1COC(=O)[C@@H]2CCCN2C(=O)[C@@H](C)COC(=O)[C@@H]2CCCN2C1=O` , what is its reported z-score?
-5.05 (inactive)

Record request: z-score value, item C=CCC(OC(C)=O)[C@@H]1[C@@H](N(Cc2cc3ccccc3o2)C(=O)c2ccc(C)cc2)c2cc(OCCCO)ccc2N1C(=O)c1ccc2ccccc2n1 (some centres not stated)
-1.79 (inactive)

Fill in: z-score of `O=C1O[C@@H](c2ccccc2)[C@@H](c2ccccc2)N2[C@@H](c3ccc(O)cc3)[C@]3(C(=O)Nc4ccccc43)[C@@H](C(=O)N3CCN(c4ncccn4)CC3)[C@H]12` is ___
-2.96 (inactive)

Recorded z-score for `NC(=O)NCC#Cc1ccc2c(c1)[C@]1(C(=O)N2)[C@H](C(N)=O)[C@H]2C(=O)O[C@H](c3ccccc3)[C@H](c3ccccc3)N2[C@@H]1c1ccccc1OCCO` , please?
-4.44 (inactive)
